tested on: Raji; assay: Antiproliferative activity against human Raji cells by MTT colorimetric assay; assay type: functional, cell-based
I'd appreciate it if you could label each record using IC50 and these ranges: c1 = under 6 µM, c2 = from 6 µM up to 20 µM, c3 = 20 µM and over

1) O=C(/C=C/c1ccc(F)cc1)O[C@@H]1[C@H]2OC(=O)C[C@H]2O[C@@H]1[C@H](OC(=O)/C=C/c1ccc(F)cc1)c1cccs1
c3
2) O=C(/C=C/c1ccc(F)cc1)O[C@H](c1cccs1)[C@H]1O[C@@H]2CC(=O)O[C@@H]2[C@H]1O
c3
3) CC1(C)O[C@H]2O[C@H]([C@H](O)c3cccs3)[C@H](O)[C@H]2O1
c1
4) O=C1C[C@H]2O[C@H]([C@@H](O)c3cccs3)[C@H](O)[C@H]2O1
c2
5) O=C1C[C@H]2O[C@H](C(=O)c3cccs3)[C@H](O)[C@H]2O1
c2
6) CC1(C)O[C@H]2O[C@H]([C@@H](O)c3cccs3)[C@H](O)[C@H]2O1
c1
7) O=C1C[C@H]2O[C@@H](C(=O)c3cccs3)[C@H](O)[C@H]2O1
c1

Moving on to another compound below.
IN: Band for `O=C(/C=C/c1ccccc1)O[C@@H]1[C@H]2OC(=O)C[C@H]2O[C@@H]1[C@H](OC(=O)/C=C/c1ccccc1)c1cccs1` ?
OUT: c2

* * *

tested on: MCF7; test: Antiproliferative activity against human MCF7 cells by MTT colorimetric assay; assay type: functional, cell-based
Give measured pIC50 for each item. Keep answers brief.
Give bare numbers, as −log10 of the molar value.

Recorded pIC50, per entry:
1. O=C(/C=C/c1ccc(F)cc1)O[C@H](c1cccs1)[C@H]1O[C@@H]2CC(=O)O[C@@H]2[C@H]1O
4.98
2. CC1(C)O[C@H]2O[C@H]([C@H](O)c3cccs3)[C@H](O)[C@H]2O1
5.36
3. O=C1C[C@H]2O[C@H]([C@@H](O)c3cccs3)[C@H](O)[C@H]2O1
4.35

Hey, can you go through the list below and give me pIC50 for every item?
1. O=C1C[C@H]2O[C@@H](C(=O)c3cccs3)[C@H](O)[C@H]2O1
2. CC1(C)O[C@H]2O[C@H]([C@@H](O)c3cccs3)[C@H](O)[C@H]2O1
3. O=C1C[C@H]2O[C@H](C(=O)c3cccs3)[C@H](O)[C@H]2O1
4. O=C1C[C@H]2O[C@H]([C@H](O)c3cccs3)[C@H](O)[C@H]2O1
5. O=C(/C=C/c1ccc(F)cc1)O[C@@H]1[C@H]2OC(=O)C[C@H]2O[C@@H]1[C@H](OC(=O)/C=C/c1ccc(F)cc1)c1cccs1
6. O=C(c1cccs1)[C@H]1OC(O)[C@H](O)[C@H]1O (stereo not given in full)

OUT:
1: 5.99; 2: 5.58; 3: 4.63; 4: 5.47; 5: 5.23; 6: 4.81

IN: Look up pIC50 of `O=C(/C=C/c1ccccc1)O[C@@H]1[C@H]2OC(=O)C[C@H]2O[C@@H]1[C@H](OC(=O)/C=C/c1ccccc1)c1cccs1` and report it.
OUT: 4.96
